Source listed as PubChem BioAssay (NCI).

method.description: NCI Yeast Anticancer Drug Screen. Data for the mec2-1 strain (AID 157)
details: S. cerevisiae mec2-1 strain, at 50.0 µM (retest, dose inferred, filed as 5.0)
Procedure: Growth inhibition of yeast strains with defined genetic alterations is measured as a screen for potential anti-cancer activity. Selected strains with alterations in DNA damage repair or cell cycle control were exposed to compounds and growth inhibition was measured relative to vehicle treated controls. The strain used in this assay is mec2-1
The panel holds about 79,000 compounds, 15% with a hit somewhere; the sample as a whole holds those more often. The source made the active and inactive calls. Rule as the data show it: active = growth inhibition above about 70%; inactive = the rest.
Would you mind answering with one of these outcomes? true (1) (active), false (0) (inactive)

1) O=C(c1ccc(Br)cc1)C1OC12C(=O)Nc1ccccc12 (stereo not given)    true (1)

Ask | I'd appreciate the recorded outcome for `OC(CC(CC(O)(C(F)(F)Cl)C(F)(F)Cl)=NNc1ccccc1)(C(F)(F)Cl)C(F)(F)Cl` from this test.
Reply | true (1)

Ask | I'd appreciate the recorded outcome for O=C1NC(=O)C(c2ccccc2)(c2ccccc2)C2CC3c4[nH]c5ccccc5c4CCN3CC12 (stereo not given) from this test.
Reply | false (0)

Ask | I'd appreciate the recorded outcome for O=C(CC1CCCC(CC(=O)c2ccccc2)N1CCc1ccccc1)c1ccccc1 (stereo not given) from this test.
Reply | true (1)

Ask | I'd appreciate the recorded outcome for `COc1ccc2nc3cc(Cl)ccc3c(Nc3nccs3)c2c1` from this test.
Reply | true (1)
